This collection of values is drawn from patent US10662204B2.

Exercise: state measured MSRA (% modification) 10 μM 0.25 hr for each of the compounds provided.
# TGT: GDP-loaded KRAS (1-169) G12C, C51S, C80L, C118S (Homo sapiens, UniProt P01116, C118S/C51S/C80L/G12C)
# Construct: GDP-loaded KRAS (1-169) G12C, C51S, C80L, C118S
# EXPERIMENTAL DETAILS: Mass Spectrometry Reactivity Assay (MSRA): covalent adduct of compound and KRAS G12C, Percent Modification
# Type: binding
# MEASUREMENT CONTEXT: 10 μM compound, 0.25 hr
Numbers only, in %.

Parameters: items (list). Returns: MSRA (% modification) 10 μM 0.25 hr for each item.
1. C=CC(=O)N1CCN(c2nc(OC[C@@H]3CCCN3C)nc3c(Oc4c(C)c(Cl)cc5[nH]ncc45)nc(Cl)cc23)CC1 [Example 10G]
2. C=CC(=O)N1CCN(c2ncnc3c(Oc4c(Cl)c(F)cc5[nH]ncc45)nc(Cl)cc23)[C@@H](C)C1 [Example 39A]
3. C=CC(=O)N1CCN(c2nc(N3CC(N(C)C)C3)nc3c(Oc4c(Cl)c(F)cc5[nH]ncc45)nccc23)CC1 [Example 02H]

53
74
53

// sample C=CC(=O)N1CCN(c2nc(OCC3CCC(=O)N3C)nc3c(Oc4c(Cl)c(F)cc5[nH]ncc45)nc(Cl)cc23)CC1 (stereo not shown) [Example 14G] , its MSRA (% modification) 10 μM 0.25 hr was 79

* * *

# TGT: GDP-loaded KRAS (1-169) G12C, C51S, C80L, C118S (Homo sapiens, UniProt P01116, C118S/C51S/C80L/G12C)
# Construct: GDP-loaded KRAS (1-169) G12C, C51S, C80L, C118S
# EXPERIMENTAL DETAILS: Mass Spectrometry Reactivity Assay (MSRA): covalent adduct of compound and KRAS G12C, Percent Modification
# Type: binding
# MEASUREMENT CONTEXT: 10 μM compound, 0.50 hr
Grouping by measured MSRA (% modification) 10 μM 0.50 hr is done with the following cut points: bin A = under 20%, bin B = from 20% up to 40%, bin C = 40% and over

Before answering, review these 3 worked examples.
>  <MOLECULE>
C=CC(=O)N1CCN(c2nc(N3CC[C@@H](N(C)C)C3)nc3c(Oc4c(C)ccc5[nH]ncc45)cccc23)CC1 [Example 09E]

>  <GROUP>
bin B

$$$$
>  <MOLECULE>
C=CC(=O)N1CCN(c2ncnc3c(Cc4c(C)ccc5[nH]ncc45)cccc23)CC1 [Example 01D]

>  <GROUP>
bin B

$$$$
>  <MOLECULE>
C=CC(=O)N1CCN(c2ncnc3c(Oc4c(Cl)c(Cl)cc5[nH]ncc45)nccc23)CC1 [Example 29A]

>  <GROUP>
bin C

$$$$

Which category does the recorded MSRA (% modification) 10 μM 0.50 hr put C=CC(=O)N1CCN(c2nc(OCCCN(C)C)nc3c(Oc4c(C)ccc5[nH]ncc45)nccc23)CC1 [Example 04B] in? bin B

Which category does the recorded MSRA (% modification) 10 μM 0.50 hr put C=CC(=O)N1CCN(c2nc(OCCc3ncc[nH]3)nc3c(Oc4c(C)ccc5[nH]ncc45)cccc23)CC1 [Example 09F] in? bin C

Which category does the recorded MSRA (% modification) 10 μM 0.50 hr put C=CC(=O)N1CCN(c2ncnc3c(Oc4c(C)ccc5[nH]ncc45)cc(Br)cc23)CC1 [Example 13C] in? bin B

Which category does the recorded MSRA (% modification) 10 μM 0.50 hr put C=CC(=O)N1CCN(c2ncnc3c(Oc4c(C)cccc4Cl)nccc23)CC1 [Example 03] in? bin A

Which category does the recorded MSRA (% modification) 10 μM 0.50 hr put C=CC(=O)N1CCN(c2nc(N3CC4(C3)C(=O)NCN4C)nc3c(Oc4c(C)ccc5[nH]ncc45)cccc23)CC1 [Example 18F] in? bin B

Which category does the recorded MSRA (% modification) 10 μM 0.50 hr put C=CC(=O)N1CCN(c2nc(OCc3nncn3C)nc3c(Oc4c(C)ccc5[nH]ncc45)cccc23)CC1 [Example 07F] in? bin C

Which category does the recorded MSRA (% modification) 10 μM 0.50 hr put C=CC(=O)N1CCN(c2ncnc3c(Oc4c(C(F)(F)F)ccc5[nH]ncc45)nccc23)CC1 [Example 04C] in? bin B
